assayed_target: Adenosine receptor A2b (Homo sapiens, UniProt P29275)
Sequence (P29275 whole entry): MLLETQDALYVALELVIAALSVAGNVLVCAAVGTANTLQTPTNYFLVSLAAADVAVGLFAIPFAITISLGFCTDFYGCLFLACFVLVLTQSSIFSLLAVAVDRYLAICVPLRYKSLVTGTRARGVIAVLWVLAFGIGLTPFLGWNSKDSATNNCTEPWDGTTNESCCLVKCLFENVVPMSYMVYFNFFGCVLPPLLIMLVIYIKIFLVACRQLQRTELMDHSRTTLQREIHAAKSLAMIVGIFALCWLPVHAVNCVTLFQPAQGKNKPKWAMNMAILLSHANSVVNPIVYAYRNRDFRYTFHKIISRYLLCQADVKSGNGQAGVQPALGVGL
experiment_summary: Displacement of [3H]PSB-603 from recombinant human A2B adenosine receptor expressed in CHO cell membranes measured after 75 mins in presence of adenosine deaminase by liquid scintillation counting method
observation_type: Ki (nM)

Answered examples (2):
CCCn1c(=O)[nH]c2nc(-c3ccc(S(=O)(=O)N4CCN(Cc5cccc(C)c5)CC4)cc3)[nH]c2c1=O | 0.397
CCCn1c(=O)[nH]c2nc(-c3ccc(S(=O)(=O)N4CCN(c5ccc(I)cc5)CC4)cc3)[nH]c2c1=O | 0.159

[P] CCCn1c(=O)[nH]c2nc(-c3ccc(S(=O)(=O)N4CCN(c5cccc(OC)c5)CC4)cc3)[nH]c2c1=O
[Q] CCCn1c(=O)c2[nH]c(-c3ccc(S(=O)(=O)N4CCN(c5ccc(Cl)cc5)CC4)cc3)nc2n(CC)c1=O
[R] CCCn1c(=O)[nH]c2nc(-c3ccc(S(=O)(=O)N4CCN(Cc5cccc(Br)c5)CC4)cc3)[nH]c2c1=O
[S] CCCn1c(=O)[nH]c2nc(-c3ccc(S(=O)(=O)N(C)C)cc3)[nH]c2c1=O
List the 4 entries from lowest Ki to highest Ki value. Give me the labels in the order the question wants.
R, P, Q, S
(R: 0.148 nM, P: 0.616 nM, Q: 4.31 nM, S: 18.6 nM)

----------
assayed_target: Adenosine receptor A1 (Homo sapiens, UniProt P30542)
Sequence (P30542 whole entry): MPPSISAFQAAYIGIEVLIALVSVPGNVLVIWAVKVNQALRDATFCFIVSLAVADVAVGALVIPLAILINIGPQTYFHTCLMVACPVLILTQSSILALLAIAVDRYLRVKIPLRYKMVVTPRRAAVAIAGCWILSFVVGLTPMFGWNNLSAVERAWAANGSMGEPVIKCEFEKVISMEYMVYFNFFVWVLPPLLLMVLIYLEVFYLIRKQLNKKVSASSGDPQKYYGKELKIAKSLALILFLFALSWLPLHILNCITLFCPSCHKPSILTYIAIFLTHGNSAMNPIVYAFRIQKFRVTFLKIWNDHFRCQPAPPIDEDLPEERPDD
experiment_summary: Displacement of [3H]CCPA from recombinant human A1 adenosine receptor expressed in CHO cell membranes measured after 90 mins in presence of adenosine deaminase by liquid scintillation counting method
pKi: −log10 of the molar value.
observation_type: pKi

CCCn1c(=O)[nH]c2nc(-c3ccc(S(=O)(=O)N4CCN(Cc5ccc(N=[N+]=[N-])cc5)CC4)cc3)[nH]c2c1=O | 6.31
CCCn1c(=O)[nH]c2nc(-c3ccc(S(=O)(=O)N4CCN(c5cccc(Br)c5)CC4)cc3)[nH]c2c1=O | < 6.00
CCCn1c(=O)[nH]c2nc(-c3ccc(S(=O)(=O)N4CCN(c5cccc(OC)c5)CC4)cc3)[nH]c2c1=O | < 6.00
CCCn1c(=O)[nH]c2nc(-c3ccc(S(=O)(=O)N4CCN(c5ccccc5F)CC4)cc3)[nH]c2c1=O | < 6.00
CCCn1c(=O)[nH]c2nc(-c3ccc(S(=O)(=O)N4CCN(C(=O)c5ccccc5)CC4)cc3)[nH]c2c1=O | < 6.00

Query (molecule): CCCn1c(=O)[nH]c2nc(-c3ccc(S(=O)(=O)N4CCN(C(C)c5ccccc5)CC4)cc3)[nH]c2c1=O (stereo unspecified) ; field requested: pKi
≤ 6.00

All values here come from ChEMBL document CHEMBL4346653.
